B1: LOXL2 (parent)
chain: FSPDGPSRFRKAYKPEQPLVRLRG

Variants of: B1
Assay: protein stability index of a GFP-peptide fusion (GPS, HEK-293T) (PSI 1-6); higher = more stable;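 further: lentivirally expressed fusions sorted by FACS into six bins by GFP to DsRed ratio, PSI derived from sequencing read proportions per bin multiplied by bin number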
Settings: c terminus: a fixed tail appended

| alteration | protein stability index |
| --- | --- |
| P6K | 1.98 |
| P18M | 2 |
| L22Q | 1.99 |
